- ASSAY_SUMMARY: in vitro
- TEST_CONTEXT: human, Caco-2, pH 7.4
RECORDED_ENDPOINT: efflux ratio at 120 min, 2 μM
No unit in the answer, only the number.

Some compounds with recorded efflux ratio at 120 min, 2 μM:
COMPOUND	RECORDED_ENDPOINT	OBSERVED
Cn1cnc(COc2cc(N3CCN(CCn4c(=O)sc5c4nc(N)n4nc(-c6ccco6)nc54)CC3)c(F)cc2F)n1	efflux ratio at 120 min, 2 μM	108
Nc1nc2c(sc(=O)n2CCN2CCN(c3ccc(O[C@H]4COC[C@@H]4O)cc3F)CC2)c2nc(-c3ccco3)nn12	efflux ratio at 120 min, 2 μM	24
Nc1nc2c(sc(=O)n2CCN2CCN(c3ccc(O[C@H]4CNC[C@H]4F)cc3F)CC2)c2nc(-c3ccco3)nn12	efflux ratio at 120 min, 2 μM	20
Nc1nc2c(sc(=O)n2CCN2CCN(c3ccc(C(=O)NCC(O)CO)cc3F)CC2)c2nc(-c3ccco3)nn12 (centres unmarked)	efflux ratio at 120 min, 2 μM	192

Next up:
Req: Would you mind telling me what efflux ratio at 120 min, 2 μM value was observed for Nc1nc2c(sc(=O)n2CCN2CCN(c3ccc(OCC4CCNCC4)cc3F)CC2)c2nc(-c3ccco3)nn12 ?
Resp: 472

---

- MEASURED_TARGET: A2A receptor (Homo sapiens, UniProt P29274)
- Sequence (P29274 whole entry): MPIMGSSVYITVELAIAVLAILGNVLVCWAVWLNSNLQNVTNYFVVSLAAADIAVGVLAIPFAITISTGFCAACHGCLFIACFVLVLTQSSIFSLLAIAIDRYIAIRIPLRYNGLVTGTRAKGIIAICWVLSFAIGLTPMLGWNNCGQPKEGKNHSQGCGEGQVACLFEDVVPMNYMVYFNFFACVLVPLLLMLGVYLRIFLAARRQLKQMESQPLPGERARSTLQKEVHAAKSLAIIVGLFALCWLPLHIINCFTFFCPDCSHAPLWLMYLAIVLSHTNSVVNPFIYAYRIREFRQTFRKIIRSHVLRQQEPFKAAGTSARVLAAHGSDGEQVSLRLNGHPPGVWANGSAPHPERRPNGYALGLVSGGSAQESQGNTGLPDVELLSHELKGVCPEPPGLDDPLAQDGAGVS
- ASSAY_SUMMARY: Inhibition of cAMP production in HEK cells
- Type: cell-based
- TEST_CONTEXT: IC50 (nM) (3 nM NECA as agonist, 0.1% BSA), HEK-293 cells with A2A receptor, 3 nM NECA as agonist, 0.1% BSA
RECORDED_ENDPOINT: IC50 (nM)
# output: bare number, implied unit nM

Req: Would you mind telling me what IC50 value was observed for Nc1nc2c(sc(=O)n2CCN2CCN(c3cc(O[C@@H]4CCNC4=O)c(F)cc3F)CC2)c2nc(-c3ccco3)nn12 ?
Resp: 0.4

---

- MEASURED_TARGET: A2A receptor (Homo sapiens)
- ASSAY_SUMMARY: Inhibition of cAMP production in HEK cells
- Format: cell-based
- TEST_CONTEXT: IC50 (nM) (3 nM NECA as agonist, 0.1% BSA), HEK-293 cells with A2A receptor, 3 nM NECA as agonist, 0.1% BSA
- Description: When the A2A receptor is activated, is induces the production of cAMP. HEK-293 cells with a stable transfection of A2A receptor were bought from PerkinElmer® (# ES-011-C). […] Fresh media without the selection marker was added on the day immediately before the experiment to stop selection pressure. […] Compounds of the present invention were diluted 100× in either of the buffers depending on the assay performed. […] The TR-FRET signal was measured after 1 hour using a Spectramax Paradigm (Molecular Devices).
Kindly apply the following: condition met if IC50 is less than 0.6 nM, condition not met in every other case.

MOLECULE	MEASURED_TARGET	CLASS_ASSIGNMENT
Nc1nc2c(sc(=O)n2CCN2CCN(c3ccc(O[C@H]4CC[S@+]([O-])CC4)cc3F)CC2)c2nc(-c3ccco3)nn12 (single isomer, unassigned)	A2A receptor (Homo sapiens)	condition not met
Nc1nc2c(sc(=O)n2CCN2CCN(c3ccc(OCc4n[nH]c(=O)o4)cc3F)CC2)c2nc(-c3ccco3)nn12	A2A receptor (Homo sapiens)	condition met
CNCCNC(=O)c1ccc(N2CCN(CCn3c(=O)sc4c3nc(N)n3nc(-c5ccco5)nc43)CC2)c(F)c1	A2A receptor (Homo sapiens)	condition met
CC(Oc1ccc(N2CCN(CCn3c(=O)sc4c3nc(N)n3nc(-c5ccco5)nc43)CC2)c(F)c1)C(=O)O (centres unmarked)	A2A receptor (Homo sapiens)	condition not met
NCC(=O)NCCOc1ccc(N2CCN(CCn3c(=O)sc4c3nc(N)n3nc(-c5ccco5)nc43)CC2)c(F)c1	A2A receptor (Homo sapiens)	condition met

Req: Determine if Nc1nc2c(sc(=O)n2CCN2CCN(c3ccc(OCC(=O)O)cc3)CC2)c2nc(-c3ccco3)nn12 shows IC50 strictly lower than 0.6 nM.
Resp: condition not met

Req: Another molecule to check: CN(C)CCN(C)C(=O)c1ccc(N2CCN(CCn3c(=O)sc4c3nc(N)n3nc(-c5ccco5)nc43)CC2)c(F)c1
Resp: condition met
